Quick reference for pKd among some compounds
biological target: Kelch domain of human KEAP 1 (321-624 aa) (Homo sapiens (Human))
Sequence (Q14145 321-624): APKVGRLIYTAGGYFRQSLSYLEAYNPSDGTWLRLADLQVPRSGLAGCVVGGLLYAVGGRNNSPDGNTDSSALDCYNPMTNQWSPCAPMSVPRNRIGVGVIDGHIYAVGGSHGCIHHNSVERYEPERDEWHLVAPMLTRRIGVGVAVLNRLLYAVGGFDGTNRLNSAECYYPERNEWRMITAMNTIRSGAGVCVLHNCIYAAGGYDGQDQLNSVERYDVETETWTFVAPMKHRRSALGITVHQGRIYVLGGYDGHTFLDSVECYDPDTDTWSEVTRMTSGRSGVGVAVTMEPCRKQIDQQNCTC
pKd: −log10 of the molar value.
test.readout: pKd

INSERT INTO results (compound, op, quantitative_result) VALUES
  ('Cc1ccc(C(c2ccn3c(C(F)(F)F)nnc3c2C)C(C)C(=O)O)cc1CN1C[C@@H]2CCCCN2c2ncccc2S1(=O)=O (stereo in doubt)', '>', 9.00),
  ('CCn1nnc2c(C)c(C(CC(=O)O)c3ccc(C)c(CN4CC5(COC5)Oc5ccccc5S4(=O)=O)n3)ccc21 (racemic)', '=', 8.82);
